# TARGET_OR_SYSTEM: ATP-binding cassette sub-family B member 6 (Homo sapiens)
# ASSAY_PROCEDURE: ABCB6 transporter inhibitors, pilot screen, K562-ABCB6 cells, flow cytometry, validation set (AID 588550);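 further: 0% = DMSO wells and 100% = benzethonium chloride 70 µM positive control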
# CONDITION_DESCRIPTION: K562-ABCB6 porphyrin accumulation, 1 h, at 10 µM, stronger effect = higher value
Calls of active or inactive are those of the source.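 How the source made its calls: active means inhibition above the screen-wide mean plus 3 SD, about 51%; inactive means the rest.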
RECORDED_ENDPOINT: inhibition

Note to self: inhibition recorded for COc1ccccc1C(=O)N=C1NC(=O)CC2C(=O)NCCN12 (configuration not stated) was 9% (inactive)

Note to self: inhibition recorded for O=C1c2ccccc2C(=O)C1c1ccccc1 was 4% (inactive)

* * *

# ASSAY_PROCEDURE: LAP4-GFP expression modulators in yeast, confirmation, cell-based, cherry picks, flow cytometry, mother/daughter gates (AID 2271);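 further: ratio of sample to DMSO plate mean so 100% equals DMSO level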
# CONDITION_DESCRIPTION: S. cerevisiae LAP4-GFP strain, 3 h, measured here: daughter cell gate response, at 10 µM, stronger effect = higher value, 100 means same as DMSO control
GFP response relative to DMSO listing for selected compounds.
Answer with the number, then the unit.

INSERT INTO results (compound, test_value) VALUES
  ('CCc1nnc(N2C(=O)c3cccc4cccc(c34)C2=O)s1', '92.9%'),
  ('CCc1sc(C(=O)N2CCc3ccccc32)cc1C', '111%'),
  ('Cc1ccc(C(c2cc(Cl)c3cccnc3c2O)N2CCN(C)CC2)cc1 (stereo unspecified)', '141%'),
  ('CCn1c(=O)c(C(=O)Nc2ccsc2C(=O)OC)c(O)c2ccccc21', '92.6%'),
  ('CC(C)(C)c1ccc(C(=O)N/N=C/c2cccc(Cl)c2)cc1', '101%');

Now take the following compound into account.
Note to self: GFP response relative to DMSO recorded for Cc1ccc(C(=O)c2c3ccccc3[n+]([O-])n2CCC(=O)O)cc1 was 101%

* * *

# ASSAY_PROCEDURE: yeast TOR pathway RPL19A-GFP modulators, primary screen, cell-based, S. cerevisiae, multiplex flow cytometry (AID 1862);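 further: lower values mimic rapamycin by blocking the RPL19A rise seen in DMSO cells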
# CONDITION_DESCRIPTION: S. cerevisiae RPL19A-GFP strain, flow cytometry fluorescence, 3 h; at 10 µM; stronger effect = lower value
Results filed as inconclusive are left out.
percent of DMSO control GFP listing for selected compounds.
The response must be a number in % with no trailing unit.

INSERT INTO measurements (compound, test_value) VALUES
  ('O=c1c2ccccc2nnn1Cc1cccc2ccccc12', 89.1);

Note to self: percent of DMSO control GFP recorded for O=C(CCCN1CC=C(n2c(=O)[nH]c3ccccc32)CC1)c1ccc(F)cc1 was 98.1

Note to self: percent of DMSO control GFP recorded for Cc1cc(C(C)(C)C)cc(C)c1CC1=NCCN1 was 93.7

* * *

# ASSAY_PROCEDURE: LAP4-GFP expression modulators in yeast, confirmation, cell-based, cherry picks, flow cytometry, mother/daughter gates (AID 2271);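 further: ratio of sample to DMSO plate mean so 100% equals DMSO level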
# CONDITION_DESCRIPTION: S. cerevisiae LAP4-GFP strain, 3 h, at 10 µM, 100 means same as DMSO control
The source made the active and inactive calls.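 Rule for the calls: active = GFP response above 150% of the DMSO control; inconclusive = fewer than 70 events counted in any yeast strain; inactive = the rest.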
One label from this list, please: active, inactive

Incoming: GET /call?item= COc1cccc(N=Nc2ccc3cccnc3c2O)c1 returns the recorded outcome of this test.
Outgoing: inactive

Incoming: GET /call?item= CC(NCCS(=O)(=O)c1ccc(Cl)cc1)c1cccc(Cl)c1 (stereo not drawn) returns the recorded outcome of this test.
Outgoing: inactive

Incoming: GET /call?item= CCN(CC(=O)NC(C)(C)C)C(=O)COc1c(Cl)cc(Cl)c2ccc(C)nc12 returns the recorded outcome of this test.
Outgoing: inactive

Incoming: GET /call?item= O=C(c1ccccc1F)N1CCN(c2cccc(C(F)(F)F)c2)CC1 returns the recorded outcome of this test.
Outgoing: inactive

Incoming: GET /call?item= Cn1c(C(=O)O)cc2c(=O)n3ccccc3nc21 returns the recorded outcome of this test.
Outgoing: inactive
